The measurements presented in this section are drawn from ChEMBL document CHEMBL3632530.

Quick note: these are log10 IC50 numbers for system: Acetylcholinesterase (Torpedo californica, UniProt P04058)
Sequence (P04058 whole entry): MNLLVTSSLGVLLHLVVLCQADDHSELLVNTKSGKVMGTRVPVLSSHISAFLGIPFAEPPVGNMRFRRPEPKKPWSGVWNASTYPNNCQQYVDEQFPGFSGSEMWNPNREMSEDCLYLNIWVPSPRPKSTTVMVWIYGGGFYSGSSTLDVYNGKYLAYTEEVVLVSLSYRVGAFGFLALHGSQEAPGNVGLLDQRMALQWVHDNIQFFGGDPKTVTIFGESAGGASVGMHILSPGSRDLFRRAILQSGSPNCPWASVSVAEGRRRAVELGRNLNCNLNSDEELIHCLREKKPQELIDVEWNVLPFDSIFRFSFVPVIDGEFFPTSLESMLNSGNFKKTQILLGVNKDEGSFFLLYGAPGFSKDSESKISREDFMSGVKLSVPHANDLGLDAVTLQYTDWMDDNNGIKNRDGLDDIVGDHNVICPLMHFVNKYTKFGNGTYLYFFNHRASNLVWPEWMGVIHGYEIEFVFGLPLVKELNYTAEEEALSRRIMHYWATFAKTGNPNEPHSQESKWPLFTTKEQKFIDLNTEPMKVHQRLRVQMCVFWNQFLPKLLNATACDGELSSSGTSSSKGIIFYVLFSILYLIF
The base-10 logarithm of IC50, taken with IC50 in µM, is what appears here.

**Query** Give log10 IC50 only, for O=C(/C=C/c1ccc[n+](Cc2ccc(Cl)c(Cl)c2)c1)c1cc2cc(Br)ccc2o1 , using Acetylcholinesterase (Torpedo californica, UniProt P04058) data.
**Result** -0.10

**Query** Recall the reported log10 IC50 of COc1cccc2cc(C(=O)/C=C/c3ccc[n+](Cc4ccccc4)c3)oc12 when tested on Acetylcholinesterase (Torpedo californica, UniProt P04058).
**Result** 0.59

**Query** Fill in: log10 IC50 on Acetylcholinesterase (Torpedo californica, UniProt P04058), entry O=C(/C=C/c1ccc[n+](Cc2ccc(Br)cc2)c1)c1cc2ccccc2o1
**Result** -0.45

**Query** Recall the reported log10 IC50 of COc1cccc2cc(C(=O)/C=C/c3ccc[n+](Cc4cccc(Cl)c4Cl)c3)oc12 on Acetylcholinesterase (Torpedo californica, UniProt P04058) and write it down.
**Result** -0.01

**Query** Report the value of log10 IC50 obtained on Acetylcholinesterase (Torpedo californica, UniProt P04058) for O=C(/C=C/c1cc[n+](Cc2cccc(Cl)c2Cl)cc1)c1cc2ccccc2o1 .
**Result** 0.49

**Query** Specify the recorded log10 IC50 for O=C(/C=C/c1ccc[n+](Cc2ccccc2Br)c1)c1cc2ccccc2o1 , system: Acetylcholinesterase (Torpedo californica, UniProt P04058).
**Result** -1.46

**Query** Supply log10 IC50 measured with Acetylcholinesterase (Torpedo californica, UniProt P04058) for O=C(/C=C/c1ccc[n+](Cc2ccccc2)c1)c1cc2ccccc2o1 .
**Result** -1.24

**Query** Check Acetylcholinesterase (Torpedo californica, UniProt P04058) data and give log10 IC50 for COc1cccc2cc(C(=O)/C=C/c3ccc[n+](Cc4ccccc4Br)c3)oc12 .
**Result** -1.57

**Query** Find the measured log10 IC50 of O=C(/C=C/c1cc[n+](Cc2ccccc2Br)cc1)c1cc2ccccc2o1 with Acetylcholinesterase (Torpedo californica, UniProt P04058) as test system.
**Result** -1.39

**Query** Give Acetylcholinesterase (Torpedo californica, UniProt P04058) log10 IC50 for the following compound: O=C(/C=C/c1ccc[n+](Cc2ccccc2Br)c1)c1cc2cc(Br)ccc2o1
**Result** 0.33
